Listed here: items and their measured pEC50.
System: CEM cells HIV-1 protection, formazan growth assay
experimentDescription: NCI AIDS Antiviral Assay
pEC50: −log10 of the molar value.
endpointName: pEC50

>>> obsvalue("Cc1c(C(c2[nH]c3ccccc3c2C)c2[nH]c3ccccc3c2C)[nH]c2ccccc12")
7.20
>>> obsvalue("O=C(O)CC/C(=N\\Nc1nsc2ccccc12)c1ccc(Cl)cc1")
"< 4.98"
>>> obsvalue("CCN(CC)C(=S)/N=C(\\SC(=S)N(CC)CC)c1ccccc1")
"< 3.88"
>>> obsvalue("Cc1ccc(C2C(C(=O)C(C)(C)C)N2S(=O)(=O)c2ccc(C)cc2)cc1 (stereo unspecified)")
"< 3.70"
>>> obsvalue("N#CNC(N)=NC1=CC(=O)C(=O)c2ccccc21")
"< 4.52"
>>> obsvalue("COc1ccc(/C=C2\\CSC/C(=C\\c3ccc(OC)c(OC)c3OC)C2=O)c(OC)c1OC")
"< 3.70"
>>> obsvalue("CSc1n[nH]c(NC(=O)c2ccccc2Br)n1")
"< 3.24"
>>> obsvalue("CCC/C(Cl)=N\\OC(=O)Nc1ccc(F)c([N+](=O)[O-])c1")
"< 3.70"
>>> obsvalue("O=C(NCCN1CCCC1)c1cn2c(ccc3sc4ccccc4c(=O)c32)n1")
"< 3.70"
>>> obsvalue("O=C1C2C(C(=O)N1c1ccccc1)C1(c3ccccc3)CCC2(C(=O)c2ccccc2)O1 (stereo unspecified)")
"< 3.70"
>>> obsvalue("NC1(N2SC(S)=C3CCCC=C32)CCCCC1")
4.37
>>> obsvalue("CC(=O)Nc1ccc(/C=C2\\SC(=S)N(C=C(C#N)C#N)C2=O)cc1")
"< 3.70"
>>> obsvalue("Cc1ccc2nc(N/N=C/c3sccc3C)cc(C)c2c1")
"< 3.70"
>>> obsvalue("CC=C(c1cc(Cl)c(OC)c(C(=O)OC)c1)c1cc(Cl)c(OC)c(C(=O)OC)c1")
"< 5.70"
>>> obsvalue("CC(=O)SC(SC(C)=O)SC(C)=O")
"< 3.68"
>>> obsvalue("C[C@]12OC(=O)[C@]3(O)CC[C@H]4[C@@H](C[C@@H](O)[C@@]5(Cl)CC=CC(=O)[C@]45C)[C@]45OCC6C(=O)O[C@@H]1C[C@@]6(C)[C@H](C4=O)[C@@]32O5 (stereo partly specified)")
"< 5.70"
>>> obsvalue("S=C(Nc1ccc(Cl)c(Cl)c1)N1c2ccccc2-n2cccc2C1c1cccnc1 (stereo unspecified)")
"< 4.31"
>>> obsvalue("NCCSC(C[N+](=O)[O-])c1ccccc1Cl (stereo unspecified)")
"< 3.70"
>>> obsvalue("O=C(CC1(O)C(=O)Nc2ccc(Br)cc21)c1ccc(Cl)cc1Cl (stereo unspecified)")
"< 3.79"
>>> obsvalue("CC1(C)S[C@@H]2[C@H](NC(=O)C3(N)CCCC3)C(=O)N2[C@H]1C(=O)O")
"< 3.70"
>>> obsvalue("COC(=O)c1ccccc1C1CN=NC12Cc1ccc3c(c1C2=O)CCC3 (stereo unspecified)")
"< 3.70"

* * *

Tested on: CEM cells HIV-1 protection, formazan growth assay
experimentDescription: NCI AIDS Antiviral Assay;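 active means compounds giving half or more protection of infected cells from virus-caused growth loss, again on retest; inactive means the rest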
Outcomes: active, inactive

>>> labelclass("COc1ccc2ccccc2c1C1=NC(C)(C)CO1")
"inactive"
>>> labelclass("COc1c(C2(c3ccc(F)cc3)SCCCS2)c(=O)c1=O")
"inactive"
>>> labelclass("COc1cc([C@H]2Oc3c(OC)cc(/C=C/C(=O)O)cc3[C@@H]2C(=O)O)ccc1O")
"active"
>>> labelclass("O=C1N/C(=N\\N=C\\c2ccccc2)C2(CCCCC2)O1")
"inactive"
>>> labelclass("CCCCCCCCCCCCC(Br)C(=O)OCC1OC(n2cc(C)c(=O)[nH]c2=O)CC1N=[N+]=[N-] (stereo unspecified)")
"active"
>>> labelclass("O=C1C(=C2CCCC2)CC/C1=C1/SS/C(=C2/CCC(=C3CCCC3)C2=O)S1")
"inactive"
>>> labelclass("O=[N+]([O-])/C(Cl)=C(\\Nc1ccccc1)C(Cl)=C(Cl)Cl")
"inactive"
>>> labelclass("O=C(CN1CCC(O)(c2ccccc2)CC1)N1CCN(/C=C/c2ccccc2)CC1")
"inactive"
>>> labelclass("CCOC(=O)C1Sc2ccccc2N=C1C (stereo unspecified)")
"inactive"
>>> labelclass("CC12CC(C/C1=N/O)C(C)(C)C2 (stereo unspecified)")
"inactive"
>>> labelclass("O=C(c1ccccc1)c1ccc(COc2ccc(C(c3c(O)c4ccccc4oc3=O)c3c(O)c4ccccc4oc3=O)cc2)cc1")
"inactive"
>>> labelclass("O=c1c(-c2ccc(Cl)cc2)nnc2n(Cc3ccccc3)c3ccccc3n12")
"inactive"
>>> labelclass("CC(c1ccccc1)n1c2ccccc2c2c(N)ncnc21 (stereo unspecified)")
"inactive"
>>> labelclass("Cn1c(=O)[nH]c(N2CCOCC2)c(C#N)c1=S")
"inactive"
>>> labelclass("COc1cc(C2C(Cl)C(=O)N2NC(=O)c2ccccc2O)ccc1O (stereo unspecified)")
"inactive"
>>> labelclass("CN(C)c1ccc(/C=C(\\NC(=O)c2ccccc2)C(=O)NC(CCC(=O)O)C(=O)O)cc1 (stereo unspecified)")
"inactive"
>>> labelclass("CCOC(=O)C(C)(C)Oc1ccc2c(-c3ccccc3)cc(=O)oc2c1")
"inactive"
>>> labelclass("CC/C(CC(=O)CCC(=O)Nc1ccccc1[N+](=O)[O-])=N/NC(=O)C[n+]1ccccc1")
"inactive"
>>> labelclass("OC1(O)/C=C\\CCCCC/C=C\\1")
"inactive"
>>> labelclass("C[Si]1(C)CCCSC1")
"inactive"
>>> labelclass("C=CC[C@H]1O[Si](C(C)(C)C)(C(C)(C)C)[C@H](C)[C@H]1C")
"inactive"
>>> labelclass("O=C1C2=C(CC3=C(C2)CS(=O)(=O)C3)C(=O)C2=C1CC1=C(C2)CS(=O)(=O)C1")
"inactive"
>>> labelclass("CC(=S)N=Cc1c(O)[nH]c(=O)[nH]c1=O")
"inactive"
>>> labelclass("COC(=O)C(/C(=N/N)C(=O)Nc1cc(Cl)ccc1Cl)c1nc2ccc([N+](=O)[O-])cc2[nH]c1=O (stereo unspecified)")
"inactive"
>>> labelclass("OC1CCOC1(O)c1ccccn1 (stereo unspecified)")
"inactive"
>>> labelclass("CC1(C(=O)O)CCC(C(=O)O)C(C)(C)O1 (stereo unspecified)")
"inactive"
>>> labelclass("COc1cccc2c1OC1c3ccccc3OCC1C2 (stereo unspecified)")
"inactive"
>>> labelclass("CC#CCOC(=O)c1ccccc1OC(C)=O")
"inactive"
>>> labelclass("CC(C)CCCC(C)C1CCC2C3CC[C@H]4C[C@@H](CCC=C(c5cc(Cl)c(OCc6cccc(B7OC(C)(C)C(C)(C)O7)c6)c(C(=O)OCc6cccc(B7OC(C)(C)C(C)(C)O7)c6)c5)c5cc(Cl)c(OCc6cccc(B7OC(C)(C)C(C)(C)O7)c6)c(C(=O)OCc6cccc(B7OC(C)(C)C(C)(C)O7)c6)c5)CC[C@]4(C)C3CC[C@]12C (stereo partly specified)")
"inactive"
>>> labelclass("NC(CCSCCSCCC(N)C(=O)O)C(=O)O (stereo unspecified)")
"inactive"
>>> labelclass("O=C1CCC(=O)N1N1C(=O)CCC1=O")
"inactive"
>>> labelclass("COc1ccc2c(c1)C(=O)[C@@](Nc1ccc(C=O)cc1)(OC)[C@@](OC)(c1ccc([N+](=O)[O-])cc1)O2")
"inactive"
>>> labelclass("Cc1ccnc(NS(=O)(=O)c2ccc(NC(=O)c3ccc4nc5ccccc5c(Nc5ccc(S(=O)(=O)Nc6nccc(C)n6)cc5)c4c3)cc2)n1")
"inactive"
>>> labelclass("O=C1C2CCCC3CCCC(C(=O)N1NC1CCCCC1)C32 (stereo unspecified)")
"inactive"
>>> labelclass("Cc1c(CN)c(C)c(CN)c(C)c1CN")
"inactive"
>>> labelclass("S=c1[nH]c(=S)c2[nH]cnc2[nH]1")
"inactive"
>>> labelclass("CN(C)C(=S)SSC(=S)N(C)C.[Zn+2]")
"inactive"
>>> labelclass("COc1cc(CNc2nc3c(NC(C)=O)cc(C(F)(F)F)cc3nc2-c2ccccc2)cc(OC)c1OC")
"inactive"
>>> labelclass("CC1=NS(=O)(=O)c2cc(Cl)ccc2N1")
"inactive"
>>> labelclass("CC(=O)OCC1OC(N2C(=O)[C@@H](Oc3ccccc3)[C@H]2/C=C/c2ccccc2)C(OC(C)=O)C(OC(C)=O)C1OC(C)=O (stereo partly specified)")
"inactive"
>>> labelclass("CCOC(=O)C[P+](c1ccc(Cl)cc1)(c1ccc(Cl)cc1)c1ccc(Cl)cc1")
"inactive"

* * *

Listed here: items and their measured IC50.
System: CEM cells HIV-1 protection, formazan growth assay
experimentDescription: NCI AIDS Antiviral Assay
measurementSetup: measured here: growth of uninfected CEM cells
Where a SMILES comes first, the peptide text is derived from it.
endpointName: IC50

>>> obsvalue("CC(NC(=O)CNC(=O)C(N)CO)C(=O)NC(CCC(N)=O)C(=O)NC(CCCCN)C(=O)N1CCCC1C(=O)NC(CCC(=O)O)C(=O)NC(CCC(=O)O)C(=O)NC(CCC(=O)O)C(=O)NC(CO)C(=O)NC(CO)C(=O)NC(CC(N)=O)C(=O)NC(C)C(=O)NC(Cc1cnc[nH]1)C(=O)NC(CO)C(=O)O (stereo unspecified) (H-SGAQKPEEESSNAHS-OH; configuration not given here)")
"> 100 µM"
>>> obsvalue("CN(C(=O)c1ccc2c(c1)sc1c(=O)n(C)c3ccccc3c12)c1ccccc1")
"> 200 µM"
>>> obsvalue("CN(C)C1C(=O)C(C(=O)NCNC(C=O)C(O)C(O)C(O)CO)=C(O)C2(O)C(=O)C3=C(O)c4c(O)cccc4C(C)(O)C3CC12 (stereo unspecified)")
"110 µM"
>>> obsvalue("COc1c(Br)c(=O)n(C)c(=O)n1C")
"> 200 µM"
>>> obsvalue("COC1/C=C/OC2(C)Oc3c(C)c(O)c4c(O)c(c(C=NN5C(C)CN(Cc6ccc(Cl)cc6)CC5C)c(O)c4c3C2=O)NC(=O)/C(C)=C/C=C/C(C)C(O)C(C)C(O)C(C)C(OC(C)=O)C1C (stereo unspecified)")
"6.17 µM"
>>> obsvalue("CN(C)c1ccc(N=O)c(O)c1")
"8.71 µM"
